Target: vanilloid receptor 1 (VR1/TRPV1-Receptor) (Homo sapiens, UniProt Q8NER1)
Sequence (Q8NER1 whole entry): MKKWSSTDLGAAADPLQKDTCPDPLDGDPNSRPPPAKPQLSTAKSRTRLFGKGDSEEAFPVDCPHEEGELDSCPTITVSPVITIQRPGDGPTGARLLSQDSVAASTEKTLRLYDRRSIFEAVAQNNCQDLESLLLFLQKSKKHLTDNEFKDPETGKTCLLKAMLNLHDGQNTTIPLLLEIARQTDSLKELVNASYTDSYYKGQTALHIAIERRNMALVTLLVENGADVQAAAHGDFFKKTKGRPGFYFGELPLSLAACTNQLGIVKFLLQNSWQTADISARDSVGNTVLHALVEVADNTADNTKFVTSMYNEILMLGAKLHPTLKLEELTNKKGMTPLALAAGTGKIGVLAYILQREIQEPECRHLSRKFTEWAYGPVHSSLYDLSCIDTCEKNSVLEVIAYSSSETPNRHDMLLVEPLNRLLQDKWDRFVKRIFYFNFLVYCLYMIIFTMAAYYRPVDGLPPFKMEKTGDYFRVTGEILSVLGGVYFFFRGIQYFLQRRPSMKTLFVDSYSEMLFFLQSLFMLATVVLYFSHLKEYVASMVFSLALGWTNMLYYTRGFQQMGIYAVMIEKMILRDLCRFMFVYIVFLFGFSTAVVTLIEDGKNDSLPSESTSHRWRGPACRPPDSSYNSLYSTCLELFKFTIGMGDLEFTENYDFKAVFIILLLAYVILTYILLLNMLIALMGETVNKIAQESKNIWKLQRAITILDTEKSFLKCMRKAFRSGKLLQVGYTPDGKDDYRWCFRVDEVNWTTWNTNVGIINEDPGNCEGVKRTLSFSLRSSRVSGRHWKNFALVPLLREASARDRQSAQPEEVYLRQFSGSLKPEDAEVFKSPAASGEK
Experiment: VR1 functional assay following pH-stimulus
pIC50: −log10 of the molar value.

[
  {
    "COMPOUND": "CC1CCN(c2nc(C(F)(F)F)ccc2CNC(=O)C(c2ccc(NS(C)(=O)=O)c(F)c2)C2CCCCC2)CC1 (stereo not shown)",
    "pIC50": 6.93
  },
  {
    "COMPOUND": "Cc1cccc(C(C(=O)NCc2ccc(C(F)(F)F)nc2N2CCC(C)CC2)c2ccc(NS(C)(=O)=O)c(F)c2)c1 (stereo not shown)",
    "pIC50": 7.06
  },
  {
    "COMPOUND": "CC1CCN(c2nc(C(F)(F)F)ccc2CNC(=O)C(c2ccccc2)c2ccc(NS(C)(=O)=O)c(F)c2)CC1 (stereo not shown)",
    "pIC50": 7.10
  },
  {
    "COMPOUND": "CC1CCN(c2nc(C(F)(F)F)ccc2CNC(=O)C(c2cccc(F)c2)c2ccc(NS(C)(=O)=O)c(F)c2)CC1 (stereo not shown)",
    "pIC50": 7.67
  },
  {
    "COMPOUND": "CS(=O)(=O)Nc1ccc(C(C(=O)NCc2ccc(C(F)(F)F)nc2SC2CCCCC2)C2CCCCC2)cc1F (stereo not shown)",
    "pIC50": 5.86
  },
  {
    "COMPOUND": "CS(=O)(=O)Nc1ccc(C(C(=O)NCc2ccc(C(F)(F)F)nc2SC2CCCCC2)c2ccccc2)cc1F (stereo not shown)",
    "pIC50": 5.80
  },
  {
    "COMPOUND": "CC1CCN(c2nc(C(F)(F)F)ccc2CNC(=O)C(C)(C)c2ccc(NS(C)(=O)=O)c(F)c2)CC1",
    "pIC50": 6.05
  }
]

====

Let's look at some compounds and their measured inhibition at 1 µM.
Molecular target: vanilloid receptor (VR1) (Homo sapiens, UniProt Q8NER1)
Construct: expressed in transfected cells; host or cells: CHO-K1 cells (ECACC), stably transfected
Sequence (Q8NER1 whole entry): as above
Assay: Functional FLIPR Ca2+ influx assay in CHO-K1 cells transfected with the VR1 gene, capsaicin stimulus (Pharmacological Method II)
Assay type: cell-based
Settings: @ 1 μM, read-out: inhibition (in percent), Human Capsaicin
PARAMETER: inhibition at 1 µM (%)

[
  {
    "COMPOUND": "CS(=O)(=O)Nc1ccc(C2(C(=O)NCc3ccc(C(F)(F)F)nc3SC3CCCCC3)CCCC2)cc1F [Example 14]",
    "PARAMETER": "inhibition at 1 µM",
    "SCALE_UNIT": "%",
    "RECORDED_VALUE": 20
  },
  {
    "COMPOUND": "CCC(C)(C(=O)NCc1ccc(C(F)(F)F)nc1SC1CCCCC1)c1ccc(NS(C)(=O)=O)c(F)c1 (stereo not drawn) [Example 8]",
    "PARAMETER": "inhibition at 1 µM",
    "SCALE_UNIT": "%",
    "RECORDED_VALUE": 0
  },
  {
    "COMPOUND": "CS(=O)(=O)Nc1ccc(C(C(=O)NCc2ccc(C(F)(F)F)nc2SC2CCCCC2)C2CCCCC2)cc1F (stereo not drawn) [Example 2]",
    "PARAMETER": "inhibition at 1 µM",
    "SCALE_UNIT": "%",
    "RECORDED_VALUE": 2
  },
  {
    "COMPOUND": "CC1CCN(c2nc(C(F)(F)F)ccc2CNC(=O)C2(c3ccc(NS(C)(=O)=O)c(F)c3)CCCCC2)CC1 [Example 15]",
    "PARAMETER": "inhibition at 1 µM",
    "SCALE_UNIT": "%",
    "RECORDED_VALUE": 0
  },
  {
    "COMPOUND": "CC1CCN(c2nc(C(F)(F)F)ccc2CNC(=O)C2(c3ccc(NS(C)(=O)=O)c(F)c3)CCCC2)CC1 [Example 13]",
    "PARAMETER": "inhibition at 1 µM",
    "SCALE_UNIT": "%",
    "RECORDED_VALUE": 0
  },
  {
    "COMPOUND": "Cc1ccc(CC(C(=O)NCc2ccc(C(F)(F)F)nc2N2CCC(C)CC2)c2ccc(NS(C)(=O)=O)c(F)c2)cc1 (stereo not drawn) [Example 77]",
    "PARAMETER": "inhibition at 1 µM",
    "SCALE_UNIT": "%",
    "RECORDED_VALUE": 0
  }
]

The reported numbers originate from patent US8735426B2.
